B1: MNAT1 (parent)
chain: LEEALYEYQPLQIETYGPHVPELE

Variants of: B1
Experiment: protein stability index of a GFP-peptide fusion (GPS, HEK-293T) (PSI 1-6); higher = more stable;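 also: lentivirally expressed fusions sorted by FACS into six bins by GFP to DsRed ratio, PSI derived from sequencing read proportions per bin multiplied by bin number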
Settings: c terminus: a fixed tail appended
Each entry gets 0 if its protein stability index stays under 3, and 1 if its protein stability index is 3 or above.

For orientation, consider the following solved cases.
P21Q = 1
E2P = 1
E24C = 0
E7S = 0
V20D = 0

Has Y8K a recorded protein stability index greater than or equal to 3?
1

Reported protein stability index at or above 3? Y8N
1
